runDescription: Pharmacokinetic food-effect study, single 20 mg/kg dose, healthy subjects (Example 17)
conditionNotes: human, in vivo, po, 20 mg/kg, ln(AUC0-t) Geometric Mean, cannabidiol, 20 mg/kg oral, Fed; least squares geometric mean
valueType: AUC(0-t) (ng·h/mL)
Provide the reading as a plain figure in ng·h/mL.

Sure, the documented AUC(0-t) for C=C(C)[C@@H]1CCC(C)=C[C@H]1c1c(O)cc(CCCCC)cc1O is 9210

----------
runDescription: Pharmacokinetic food-effect study, single 20 mg/kg dose, healthy subjects (Example 17)
conditionNotes: human, in vivo, po, 20 mg/kg, AUC0-16, cannabidiol, single 20 mg/kg oral, fed; mean ± SD
valueType: AUC(0-t) (ng·h/mL)
Provide the reading as a plain figure in ng·h/mL.

Sure, the documented AUC(0-t) for C=C(C)[C@@H]1CCC(C)=C[C@H]1c1c(O)cc(CCCCC)cc1O [cannabidiol] is 112
